// data source = paper PMC11882969

# target_under_test: UniProtKB P21554
# assay_comment: bioSensAll ebBRET signaling profiling, hCB1
# Type: cell-based
# Parameters: host or cells: HEK293SL cells, transient PEI transfection
# recorded_conditions: Log [Compound] (M) -5.47381; single replicate values, FigS6a

| compound | GoB hCB1 |
| --- | --- |
| Cc1nc(CC2CC2)oc1-c1nc(Cc2cc3c(cc2Br)OCO3)no1 [‘7019] | -15.1627 |
| COC(=O)[C@@H]1[C@@H]2CCC[C@@H]2CN1C(=O)c1cc(C)n(-c2cccc(C(F)(F)F)c2)n1 [‘6439] | 100.139 |
| Cn1nc(-c2nnc(C(C)(C)Oc3ccc(Cl)cc3)o2)c2ccccc2c1=O [‘0450] | 13.8657 |
| COC(=O)C(NC(=O)c1cc(C)n(-c2cccc(C(F)(F)F)c2)n1)c1cccs1 (stereo not shown) [‘60154] | 107.08 |

====

# assay_comment: Pharmacokinetics: plasma, brain, CSF
# recorded_conditions: male, CD-1, mouse, plasma, intraperitoneal, 0.2 mg/kg

| compound | units_symbol | concentration at 360 min |
| --- | --- | --- |
| Cc1cc(C(=O)NC(C)(c2ccco2)c2ccco2)nn1-c1cccc(C(F)(F)F)c1 [‘4936] | ng/mL | 0.867 |
| COC(=O)[C@@](C)(NC(=O)c1cc(C)n(-c2cccc(C(F)(F)F)c2)n1)c1cccs1 [‘1350] | ng/mL | 1.1 |

====

# target_under_test: CB1 (rCB1) (Rattus norvegicus, UniProt P20272)
# Sequence (P20272 whole entry): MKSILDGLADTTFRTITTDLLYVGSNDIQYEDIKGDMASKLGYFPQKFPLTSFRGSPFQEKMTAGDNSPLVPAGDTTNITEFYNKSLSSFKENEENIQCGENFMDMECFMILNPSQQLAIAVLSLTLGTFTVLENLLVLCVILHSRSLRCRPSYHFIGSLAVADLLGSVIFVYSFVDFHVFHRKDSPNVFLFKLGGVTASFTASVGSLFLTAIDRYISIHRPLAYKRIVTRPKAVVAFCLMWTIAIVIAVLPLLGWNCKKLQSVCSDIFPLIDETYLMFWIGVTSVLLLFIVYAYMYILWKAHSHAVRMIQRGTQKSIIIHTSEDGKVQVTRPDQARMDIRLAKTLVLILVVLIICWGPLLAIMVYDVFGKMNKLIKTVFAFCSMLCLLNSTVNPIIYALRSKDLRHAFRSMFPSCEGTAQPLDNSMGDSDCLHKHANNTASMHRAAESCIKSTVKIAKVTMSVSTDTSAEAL
# assay_comment: Single-point radioligand displacement screen
# Assay type: binding
# recorded_conditions: Figure 1c source data, replicate 1
// boundary case: rep1_displacement equal to 30 maps to label 0; strictly smaller maps to label 1

| compound | assigned_label |
| --- | --- |
| CC(Oc1ccccc1)c1noc(-c2ccc(=O)n(-c3ccc(F)cc3)n2)n1 (centres unmarked) [compound 34765] | label 1 |
| C=CCn1c(SC(C)COC)nc2cc(-c3ccccc3)sc2c1=O (centres unmarked) [compound 50746] | label 1 |
| Fc1ccc(-n2ncc3c(SCc4cc(-c5ccco5)on4)ncnc32)cc1 [compound 23397] | label 1 |
| N#CCCn1ncc(C(=O)N2CCC(F)(c3cc(F)cc(F)c3)C2)c1-c1ccccc1 (centres unmarked) [compound 34734] | label 1 |
| Fc1ccc(C(F)(F)c2noc(-c3cnnn3-c3cccc(F)c3)n2)cc1 [compound 9217] | label 0 |
| O=C(OCc1ccc(Cl)cc1-n1cncn1)c1ccnc(OC2CCC2)c1 [compound 91451] | label 1 |
| COC(=O)C(OC(=O)c1cc(C)n(-c2cccc(Cl)c2)n1)c1ccsc1 (centres unmarked) [compound 75729] | label 0 |
| COc1cc(OC)cc(-c2nc([C@H](OC)c3ccc(Br)cc3)no2)c1 [compound 13596] | label 0 |
| Cc1ccc(OCCC(=O)N2CC3CCCN3c3ccccc32)c(C)c1 (centres unmarked) [compound 26701] | label 0 |
| Cc1ccccc1-n1c(=O)c2ccccc2n2c(SC[C@H]3CCCO3)nnc12 [compound 97662] | label 1 |
| COCCOc1cc(C(=O)N2CCCC(CC3CCOC3)C2)nc2ccccc12 (centres unmarked) [compound 49667] | label 1 |
| Cc1cc(C(=O)Nc2ccnn2-c2cccc(Cl)c2)nn1[C@H](C)C1CC1 [‘7902] | label 0 |
| CCCCCCC1(c2cc(O)c3c(c2)OC(C)(C)[C@@H]2CC[C@@H](O)C[C@@H]32)CCC1 [AM2389, reference compound] | label 0 |
| O=c1ccc(-c2nc(C(F)(F)c3ccc(F)cc3)no2)nn1-c1ccc(F)cc1 [‘2443] | label 0 |
| Cn1nc(-c2nnc(C(C)(C)Oc3ccc(Cl)cc3)o2)c2ccccc2c1=O [‘0450] | label 0 |

====

# target_under_test: CB1 (rCB1) (Rattus norvegicus)
# assay_comment: Radioligand competition binding, [3H]-CP-55,940, rat brain membranes
# recorded_conditions: from rCB1 affinity

| compound | LE (ligand efficiency) |
| --- | --- |
| COC(=O)C(NC(=O)c1cc(C)n(-c2cccc(C(F)(F)F)c2)n1)c1cccs1 (stereo not shown) | 0.36 |
| COC(=O)C(NC(=O)c1cc(C)n(-c2cccc(F)c2)n1)c1cccs1 (stereo not shown) | 0.32 |
| COC(=O)[C@@](C)(NC(=O)c1cc(C)n(-c2cccc(C(F)(F)F)c2)n1)c1cccs1 | 0.41 |
| Cc1cc(C(=O)NC(C)(c2ccco2)c2ccco2)nn1-c1cccc(C(F)(F)F)c1 | 0.37 |

====

# target_under_test: hCB1 (Homo sapiens, UniProt P21554)
# Sequence (P21554 whole entry): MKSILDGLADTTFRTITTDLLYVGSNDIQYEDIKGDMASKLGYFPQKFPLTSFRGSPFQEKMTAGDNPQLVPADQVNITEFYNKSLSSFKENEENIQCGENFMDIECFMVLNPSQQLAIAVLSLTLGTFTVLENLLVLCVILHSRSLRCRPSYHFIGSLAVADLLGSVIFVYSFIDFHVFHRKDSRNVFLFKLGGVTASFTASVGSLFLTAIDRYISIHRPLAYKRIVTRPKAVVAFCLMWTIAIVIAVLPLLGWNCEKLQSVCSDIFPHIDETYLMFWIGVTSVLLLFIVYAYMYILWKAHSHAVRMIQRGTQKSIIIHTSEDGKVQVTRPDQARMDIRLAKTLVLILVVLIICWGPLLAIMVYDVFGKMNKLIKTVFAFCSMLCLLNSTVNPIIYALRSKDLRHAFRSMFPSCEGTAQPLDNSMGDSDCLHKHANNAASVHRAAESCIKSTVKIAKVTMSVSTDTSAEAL
# assay_comment: bioSensAll ebBRET signaling profiling, hCB1
# Assay type: cell-based
# Set-up: host or cells: HEK293SL cells, transient PEI transfection
# recorded_conditions: Log [Compound] (M) -11.0177; single replicate values, FigS6a
The entries below are paired with their reported GoB hCB1.
test_readout: GoB hCB1

| molecule | target_under_test | test_readout | reported |
| --- | --- | --- | --- |
| Cc1cc(C(=O)N2CC3(CCC3)[C@@H]2[C@H]2CCCO2)nn1-c1cccc(C(F)(F)F)c1 (single isomer, unassigned) | hCB1 (Homo sapiens, UniProt P21554) | GoB hCB1 | 3.37 |
| Brc1cc2c(cc1Cc1noc(-c3cnn(CC4CC4)c3)n1)OCO2 | hCB1 (Homo sapiens, UniProt P21554) | GoB hCB1 | -4.781 |
| Cn1nc(-c2nnc(C(C)(C)Oc3ccc(Cl)cc3)o2)c2ccccc2c1=O | hCB1 (Homo sapiens, UniProt P21554) | GoB hCB1 | -9.104 |
| Cc1nc(CC2CC2)oc1-c1nc(Cc2cc3c(cc2Br)OCO3)no1 | hCB1 (Homo sapiens, UniProt P21554) | GoB hCB1 | -3.426 |
| Cc1cc(C(=O)NC(c2ccccc2)c2ccco2)nn1-c1cccc(C#N)c1 (centres unmarked) | hCB1 (Homo sapiens, UniProt P21554) | GoB hCB1 | 0.2053 |
| Cc1cc(C(=O)N2CC3(CCC3)[C@H]2[C@H]2CCCO2)nn1-c1cccc(C(F)(F)F)c1 | hCB1 (Homo sapiens, UniProt P21554) | GoB hCB1 | 2.867 |
| CC(=O)C(c1cccs1)N(C)C(=O)c1cc(C)n(-c2cccc(C(F)(F)F)c2)n1 (centres unmarked) | hCB1 (Homo sapiens, UniProt P21554) | GoB hCB1 | -0.532 |
| Cc1cc(C(=O)NC(c2ccccc2)c2ccco2)nn1-c1cccc(C(F)(F)F)c1 (centres unmarked) | hCB1 (Homo sapiens, UniProt P21554) | GoB hCB1 | -3.661 |
| COC(=O)[C@@H]1[C@@H]2CCC[C@@H]2CN1C(=O)c1cc(C)n(-c2cccc(C(F)(F)F)c2)n1 | hCB1 (Homo sapiens, UniProt P21554) | GoB hCB1 | -1.557 |
| Cc1c(C(=O)OCC2CSc3ccccc3O2)cnn1Cc1ccccc1 (centres unmarked) | hCB1 (Homo sapiens, UniProt P21554) | GoB hCB1 | -7.871 |
| Cc1cc(C(=O)N2CC3(CCC3)[C@@H]2[C@@H]2CCCO2)nn1-c1cccc(C(F)(F)F)c1 | hCB1 (Homo sapiens, UniProt P21554) | GoB hCB1 | 0.4571 |
| Cc1cc(C(=O)N(C)C(c2ccccc2)c2ccco2)nn1-c1cccc(C(F)(F)F)c1 (centres unmarked) | hCB1 (Homo sapiens, UniProt P21554) | GoB hCB1 | 1.41 |
| Cc1cc(C(=O)N(C)C(c2ccco2)c2ccco2)nn1-c1cccc(C(F)(F)F)c1 | hCB1 (Homo sapiens, UniProt P21554) | GoB hCB1 | 0.6549 |
| Cc1cc(C(=O)N2CC3(CCC3)[C@H]2[C@@H]2CCCO2)nn1-c1cccc(C(F)(F)F)c1 | hCB1 (Homo sapiens, UniProt P21554) | GoB hCB1 | 4.395 |
| Cc1cc(C(=O)NC(c2ccco2)c2ccco2)nn1-c1cccc(C(F)(F)F)c1 | hCB1 (Homo sapiens, UniProt P21554) | GoB hCB1 | 0.2233 |
| COc1cccc(C(NC(=O)c2cc(C)n(-c3cccc(C(F)(F)F)c3)n2)c2ccco2)c1 (centres unmarked) | hCB1 (Homo sapiens, UniProt P21554) | GoB hCB1 | 3.856 |
| COC(=O)[C@@H]1[C@@H]2CCC[C@@H]2CN1C(=O)c1cc(C)n(-c2cccc(Cl)c2)n1 (racemic) | hCB1 (Homo sapiens, UniProt P21554) | GoB hCB1 | -2.384 |

====

The entries below are paired with their reported GoB hCB1.
# target_under_test: hCB1 (Homo sapiens)
# assay_comment: bioSensAll ebBRET signaling profiling, hCB1
# Format: cell-based
# Set-up: host or cells: HEK293SL cells, transient PEI transfection
# recorded_conditions: Log [Compound] (M) -7.55284; single replicate values, FigS6a

| compound | GoB hCB1 |
| --- | --- |
| Cc1cc(C(=O)NC(c2ccccc2)c2ccco2)nn1-c1cccc(C#N)c1 (stereo not drawn) [‘12565] | 4.557 |
| COC(=O)[C@@H]1[C@@H]2CCC[C@@H]2CN1C(=O)c1cc(C)n(-c2cccc(C(F)(F)F)c2)n1 [‘6439] | 30.9029 |
| Cn1nc(-c2nnc(C(C)(C)Oc3ccc(C(F)(F)F)cc3)o2)c2ccccc2c1=O [‘2153] | 8.536 |
| Cc1cc(C(=O)N(C)C(c2ccco2)c2ccco2)nn1-c1cccc(C(F)(F)F)c1 [‘4388] | 0.4032 |
| CC(=O)C(c1cccs1)N(C)C(=O)c1cc(C)n(-c2cccc(C(F)(F)F)c2)n1 (stereo not drawn) [‘6829] | 1.374 |
| COC(=O)C(NC(=O)c1cc(C)n(-c2cccc(F)c2)n1)c1cccs1 (stereo not drawn) [‘51486] | 4.971 |
